# tgt: GST-tagged Vpr protein (Human immunodeficiency virus type 1 group M subtype B)
# Sequence (P12520 whole entry): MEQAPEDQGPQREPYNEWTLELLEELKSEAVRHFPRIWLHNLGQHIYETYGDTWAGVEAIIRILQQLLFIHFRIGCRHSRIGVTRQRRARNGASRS
readout_name: Kd (µM)

COCCCNC(=O)C(=O)N/N=C/c1c(O)ccc2ccccc12
8.8

* * *

Some molecules, each annotated with its measured CC50 at 48 h.
# measurement_description: Cell-based cytotoxicity analysis, WST-1 assay (MDM cell)
# condition_details: human
readout_name: CC50 at 48 h (µM)

COc1ccc2ccccc2c1C1C=C(c2ccccc2)NC(=S)N1 (stereo not drawn)
30.5
CCOc1ccc(OCC(=O)Nc2cc(C)nn2-c2nc(C)c(CC)c(O)n2)cc1
38.8
COCCCNC(=O)C(=O)N/N=C/c1c(O)ccc2ccccc12
17.9

* * *

# measurement_description: Cell-based cytotoxicity analysis, WST-1 assay (HeLa cell)
# condition_details: human, 10 µM, 48 h, vs DMSO, replicate 2; read-out: HeLa viability (%) viability n=2
readout_name: viability at 48 h, 10 µM (%)

CCOc1ccc(OCC(=O)Nc2cc(C)nn2-c2nc(C)c(CC)c(O)n2)cc1
74.7
COCCCNC(=O)C(=O)N/N=C/c1c(O)ccc2ccccc12
94.2
COc1ccc2ccccc2c1C1C=C(c2ccccc2)NC(=S)N1 (stereo not drawn)
87

* * *

# measurement_description: Cell-based cytotoxicity analysis, WST-1 assay (HeLa cell)
# condition_details: human, 10 µM, 48 h, vs DMSO, replicate 1; read-out: HeLa viability (%) viability n=1
readout_name: viability at 48 h, 10 µM (%)

COCCCNC(=O)C(=O)N/N=C/c1c(O)ccc2ccccc12
84.2
COc1ccc2ccccc2c1C1C=C(c2ccccc2)NC(=S)N1 (stereo not drawn)
88
CCOc1ccc(OCC(=O)Nc2cc(C)nn2-c2nc(C)c(CC)c(O)n2)cc1
65.5
